src = the supplement of paper PMC12667976

B1: library; numbered along this chain (parent)
chain: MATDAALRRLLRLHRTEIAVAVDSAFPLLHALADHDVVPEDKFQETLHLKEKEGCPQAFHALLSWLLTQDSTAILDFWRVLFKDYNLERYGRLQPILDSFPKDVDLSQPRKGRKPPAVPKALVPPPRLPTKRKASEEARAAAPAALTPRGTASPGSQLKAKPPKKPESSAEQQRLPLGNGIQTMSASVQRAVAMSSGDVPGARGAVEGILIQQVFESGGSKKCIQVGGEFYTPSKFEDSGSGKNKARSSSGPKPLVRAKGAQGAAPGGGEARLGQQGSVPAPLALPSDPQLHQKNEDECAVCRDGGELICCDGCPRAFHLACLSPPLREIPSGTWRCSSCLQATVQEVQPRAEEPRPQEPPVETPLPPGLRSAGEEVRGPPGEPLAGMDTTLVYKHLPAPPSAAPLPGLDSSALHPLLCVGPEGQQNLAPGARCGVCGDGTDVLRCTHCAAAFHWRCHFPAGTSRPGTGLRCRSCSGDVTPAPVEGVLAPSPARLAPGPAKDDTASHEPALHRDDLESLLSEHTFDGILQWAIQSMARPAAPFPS

- Variants of: B1
- Run description: AIRE transcriptional activation functional score (insulin promoter-GFP; nonsense median 0, synonymous median 1) (normalised score); higher = higher AIRE activity (more reporter activation)
- Condition label: with insulin promoter-GFP reporter in HEK293
Endpoint label: AIRE transcriptional activation functional score
Give only the figure.

> print(dat)
   variant.description  recorded.number
1                Q157Y             1.31
2                Q346C            0.884
3                G228F            0.331

Exam item: Consider the variant shown here: `C314A` What is its recorded AIRE transcriptional activation functional score?
Marked response: 0.983

Exam item: Using the record for `R9G` , report its AIRE transcriptional activation functional score.
Marked response: 0.856
